pIC50 reference
Tested on: HeLa cells
assay-explanation: xCelligence real-time cell analysis (RTCA) cytotoxicity assay, HeLa
Type: cell-based, human
measurement-conditions: 72 hours
Procedure: The A549 and HeLa cell lines were cultured directly in DMEM (Dulbecco's Modified Eagle Medium), and then supplemented with 10% fetal bovine serum (FBS) and 1% streptomycin/penicillin. […] The cytotoxicity of complexes was measured using xCelligence RTCA DP system (ACEA Biosciences, San Diego, Calif., USA). […] A549 and HeLa cells were harvested using 0.05% Trypsin-EDTA (ethylenediaminetetraacetic acid), and then counted using LUNA automated cell counter (Logos Biosystem, Seoul, South Korea). […]
Note: pIC50 values are expressed as the negative base-10 logarithm of concentration in M.

C1=CC2C3C=CC(C3)C2C1.F[P-](F)(F)(F)(F)F.S=C([S][Pt+])N(Cc1ccccc1)Cc1ccccc1: 4.94
C1=CC2C3C=CC(C3)C2C1.CN(C)C(=S)[S][Pt+].F[P-](F)(F)(F)(F)F (stereo not shown): 5.73

// next entry
Lab note: need pIC50 with HeLa cells for entry C1=CC2C3C=CC(C3)C2C1.CCN(CC)C(=S)[S][Pt+].F[P-](F)(F)(F)(F)F (stereo not shown) , please look it up. 5.45

Data origin, for the record: patent US11117912B1
